Test system: HOP-62 NSCLC
Assay: NCI tumour cell line growth inhibition, 48 h; in the data active = GI50 below about 0.43 µM; inactive = the rest
Assign a class; possible classes are active, inactive

Would you please look over these solved cases?
{"columns": ["compound", "group"],
 "data": [
  ["O=C(CCCN1CC=C(n2c(=O)[nH]c3ccccc32)CC1)c1ccc(F)cc1", "inactive"],
  ["COc1cc2cn3c4ccc(O)cc4[nH]c(=O)c3c2cc1OC", "active"],
  ["COc1cc(NC(C)CCCN)c2nccc(C)c2c1OC (centres undefined)", "inactive"]
]}

Moving on to the next compound.
Short answer needed: outcome of this test for C=C1C(=O)O[C@H]2[C@H]1[C@@H](OC(=O)C=C(C)C)CC1=C[C@@H](C[C@@]3(C)O[C@@H]23)OC1=O ?
inactive

---

Test system: OVCAR-4 ovarian
Test: NCI tumour cell line growth inhibition, 48 h
assay-endpoint: TGI (µM)
Report the value in µM with no unit label.

Take a look at these entries with their results.
{"columns": ["compound", "TGI (µM)"],
 "data": [
  ["CN(C)Cc1c[nH]c2c1C(=O)c1c(c(O)c3ccccc3c1O)C2=O", 42.6],
  ["C#CC(=O)Nc1cccc(Nc2nc3c(c(NCc4ccccc4)n2)CCCC3)c1", 1.02],
  ["O=C1/C(=C\\c2ccc([N+](=O)[O-])o2)SC2N=C(COc3ccc(Cl)cc3)NN12 (stereo not given)", 3.43]
]}

Find TGI (OVCAR-4 ovarian) for the entry O=C(CC(c1ccccc1)N1CCCCC1)c1ccccc1 (stereo not given)
40.2

---

Each entry below carries its reported TGI.
Test system: SF-295 CNS
Assay: NCI tumour cell line growth inhibition, 48 h

Take a look at these entries with their results.
{"columns": ["molecule", "TGI"],
 "data": [
  ["COc1ccc(C2C(C#N)=C(N)OC3=C2COc2ccc(F)cc23)cc1OC (configuration not stated)", "67.5 µM"],
  ["CC(C)(C)C(=O)/C=C/c1ccc(Oc2ccccc2)cc1", "> 100 µM"],
  ["CCOC(=O)N1CCN(C(=O)c2ccc(C(F)(F)F)nc2Nc2cc(Cl)ccc2C)CC1", "65.3 µM"]
]}

Give the measured TGI of N#CSc1nc[nH]c1C(N)=O .
> 100 µM

---

Each entry below carries its reported TGI.
Test system: SK-OV-3 ovarian
Test: NCI tumour cell line growth inhibition, 48 h

Give the measured TGI of O=C(C[n+]1ccccc1)NNC(=O)/C(=C/c1ccc2c(c1)OCO2)NC(=O)c1ccccc1 .
> 100 µM

Give the measured TGI of CN(C)C(=O)NCCN1CCCCCc2ccccc21 .
> 100 µM

Give the measured TGI of CCCS(=O)(=O)Nc1ccc(Nc2c3ccccc3nc3ccccc23)c(OC)c1 .
16.4 µM

Give the measured TGI of CCOC(=O)CC1CCN(C(=O)c2ccccc2)C2Cc3c([nH]c4ccccc34)C12C[N+](=O)[O-] (centres undefined) .
> 100 µM

Give the measured TGI of CC(=O)OCC1OC([S-])C(OC(C)=O)C(OC(C)=O)C1OC(C)=O.CC[PH+](CC)CC.CC[PH+](CC)CC.[Au].[Au] (centres undefined) .
3.05 µM

Give the measured TGI of C[C@H]1[C@H](C)CC[C@]2(C)CC[C@]3(C)C(=C[C@@H](O)[C@@H]4[C@@]5(C)[C@H](O)[C@@H](O)[C@H](O)C(C)(C)[C@@H]5CC[C@]43C)[C@H]12 .
> 100 µM
